Tested on: 832693-133-R-J1-PDC multi-cell spheroids, viability;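 note: spheroids exposed to the drugs for one week before the viability readout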
Assay: Anticancer human tumor 832693-133-R-J1-PDC patient-derived head and neck squamous carcinoma cell line growth inhibition [IpAb]
Conditions: second compound 0.1 µM; first compound 0.00949 µM; stronger effect = lower value
Response field label: string, one of condition met (viability, T/C strictly below 70%) or condition not met.

molecule	measurement_target	discrete_label
Cn1cnc2c(F)c(Nc3ccc(Br)cc3Cl)c(C(=O)NOCCO)cc21 + CC(C)NCC(C(=O)N1CCN(c2ncnc3c2C(C)CC3O)CC1)c1ccc(Cl)cc1	832693-133-R-J1-PDC multi-cell spheroids, viability	condition not met
CC(=O)c1c(C)c2cnc(Nc3ccc(N4CCNCC4)cn3)nc2n(C2CCCC2)c1=O + CC(C)NCC(C(=O)N1CCN(c2ncnc3c2C(C)CC3O)CC1)c1ccc(Cl)cc1	832693-133-R-J1-PDC multi-cell spheroids, viability	condition met
Cn1cnc2c(F)c(Nc3ccc(Br)cc3Cl)c(C(=O)NOCCO)cc21 + CCN1CCN(Cc2ccc(Nc3ncc(F)c(-c4cc(F)c5nc(C)n(C(C)C)c5c4)n3)nc2)CC1	832693-133-R-J1-PDC multi-cell spheroids, viability	condition met
CC(C)(C)c1cnc(CSc2cnc(NC(=O)C3CCNCC3)s2)o1 + CC(C)NCC(C(=O)N1CCN(c2ncnc3c2C(C)CC3O)CC1)c1ccc(Cl)cc1	832693-133-R-J1-PDC multi-cell spheroids, viability	condition not met
CC(C)(C)c1cnc(CSc2cnc(NC(=O)C3CCNCC3)s2)o1 + CCN1CCN(Cc2ccc(Nc3ncc(F)c(-c4cc(F)c5nc(C)n(C(C)C)c5c4)n3)nc2)CC1	832693-133-R-J1-PDC multi-cell spheroids, viability	condition not met
CC(=O)c1c(C)c2cnc(Nc3ccc(N4CCNCC4)cn3)nc2n(C2CCCC2)c1=O + CCN1CCN(Cc2ccc(Nc3ncc(F)c(-c4cc(F)c5nc(C)n(C(C)C)c5c4)n3)nc2)CC1	832693-133-R-J1-PDC multi-cell spheroids, viability	condition met
